Molecular target: T1, mouse GLP-1 receptor (mouse, UniProt O35659 22-463)
T1 sequence (looked up): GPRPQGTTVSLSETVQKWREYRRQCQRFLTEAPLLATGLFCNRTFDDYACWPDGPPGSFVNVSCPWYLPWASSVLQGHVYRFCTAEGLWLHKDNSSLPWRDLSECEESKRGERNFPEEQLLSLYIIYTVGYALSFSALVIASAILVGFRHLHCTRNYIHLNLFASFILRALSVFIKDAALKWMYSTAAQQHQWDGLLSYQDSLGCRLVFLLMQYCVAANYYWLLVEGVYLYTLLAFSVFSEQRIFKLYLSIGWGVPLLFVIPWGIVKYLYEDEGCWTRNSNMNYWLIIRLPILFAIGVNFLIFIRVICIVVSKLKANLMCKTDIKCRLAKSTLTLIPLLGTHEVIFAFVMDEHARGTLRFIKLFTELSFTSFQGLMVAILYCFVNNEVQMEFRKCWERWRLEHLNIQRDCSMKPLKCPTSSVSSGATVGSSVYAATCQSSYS
Assay: cell-based or functional assay
Reported endpoint: cAMP EC50 (nM)
One number for each entry, in nM.

Binder | Value observed
IP390 (Fc fusion) YSEGTFTSDYSKLLEEEAVRLFIEWLVKGPGGGGGSGGGGSGGGGSGGGGSGGGGSACPPC | 2
IP379 (Fc fusion) YSEGTHTSDFSKLLEEEAVRLFIEWLLAGGGGGGSGGGGSGGGGSGGGGSATHTCPPC | 44
IP295 (Fc fusion) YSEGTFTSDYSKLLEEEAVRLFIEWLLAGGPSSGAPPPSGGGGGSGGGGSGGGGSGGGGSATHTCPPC | 0.35

Below are some binders; for each one, tell me its cAMP EC50.
1. IP370 (Fc fusion) YSEGTFTSLYSKLKEEEAVRLFIEWLLAGGGGGGSGGGGSGGGGSGGGGSATHTCPPC
2. IP278 (Fc fusion) YSEGTFTSDYSKLLEEEAVRLFIEWLVKGPPSSGAPPPSGGGGGSGGGGSGGGGSGGGGSATHTCPPC
3. IP355 (Fc fusion) YSEGTHTSLFSKLLEEEAVRLFIEWLLAGGGGGGSGGGGSGGGGSGGGGSATHTCPPC

### Response
13
0.32
220

Below are some binders; for each one, tell me its cAMP EC50.
1. IP261 (Fc fusion) YSEGTFTSDYSKLLEEEAVRLFVEWLVKGPGGGGGSGGGGSGGGGSGGGGSATHTCPPCPAPEF
2. IP273 (Fc fusion) YSEGTFTSDYSKLLEEEAVRLFIEWLVKGPAAAGGSGSTASSGSGSATGGGGAATHTCPPC
3. IP360 (Fc fusion) YSEGTFTSDYRILLEEEAVRLFIEWLLAGGGGGGSGGGGSGGGGSGGGGSATHTCPPC

### Response
[0.34, 0.19, 1.2]
